Experimental system: COX-2 (Homo sapiens, UniProt P35354)
Sequence (P35354 18-604): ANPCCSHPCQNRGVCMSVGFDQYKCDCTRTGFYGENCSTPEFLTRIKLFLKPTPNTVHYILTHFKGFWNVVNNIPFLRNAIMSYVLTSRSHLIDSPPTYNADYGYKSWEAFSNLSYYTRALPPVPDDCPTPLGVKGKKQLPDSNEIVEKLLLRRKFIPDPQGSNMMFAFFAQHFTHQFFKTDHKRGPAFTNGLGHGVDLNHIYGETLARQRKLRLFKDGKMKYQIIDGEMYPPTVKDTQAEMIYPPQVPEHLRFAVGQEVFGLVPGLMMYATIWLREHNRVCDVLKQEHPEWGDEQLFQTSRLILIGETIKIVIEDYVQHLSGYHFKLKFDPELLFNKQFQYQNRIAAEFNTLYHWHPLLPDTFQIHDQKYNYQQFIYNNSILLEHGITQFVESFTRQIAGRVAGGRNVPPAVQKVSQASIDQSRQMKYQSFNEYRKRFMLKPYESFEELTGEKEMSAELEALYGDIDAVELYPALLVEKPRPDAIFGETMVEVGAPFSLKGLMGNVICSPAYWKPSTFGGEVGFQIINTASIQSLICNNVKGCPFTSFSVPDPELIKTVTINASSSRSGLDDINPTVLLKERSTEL
Assay comment: COX-2 inhibition assay in vitro (COX Inhibitor Screening Kit, fluorometric)
Observed property: IC50 (nM)
Give bare numbers, in nM.

Form field IC50, entry "CC(=O)c1ccccc1C(=O)N1CCN(Cc2cccc([N+](=O)[O-])c2)CC1" : 842

###

# pIC50 measurements, system: UniProtKB Q16539
# Sequence (Q16539 whole entry): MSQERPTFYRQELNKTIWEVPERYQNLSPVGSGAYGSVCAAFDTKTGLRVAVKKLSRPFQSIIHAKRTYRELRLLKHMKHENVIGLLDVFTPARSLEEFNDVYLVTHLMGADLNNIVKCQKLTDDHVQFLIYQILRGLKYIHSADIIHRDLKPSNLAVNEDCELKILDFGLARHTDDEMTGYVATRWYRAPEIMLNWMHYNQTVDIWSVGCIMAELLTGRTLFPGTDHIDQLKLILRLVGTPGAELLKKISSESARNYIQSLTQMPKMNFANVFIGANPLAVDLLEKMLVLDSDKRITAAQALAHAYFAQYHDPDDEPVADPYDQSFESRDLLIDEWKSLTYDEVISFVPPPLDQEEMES
Answers are plain numbers, as −log10 of the molar value.

See these solved cases before continuing.
Form field pIC50, entry COc1ccccc1CN1CCN(C(=O)c2ccccc2C(C)=O)CC1 [Compound 6n] : 5.71

Form field pIC50, entry CC(=O)c1ccccc1C(=O)N1CCN(Cc2cccc([N+](=O)[O-])c2)CC1 [Compound 6f] : 5.47

Then this compound:
Form field pIC50, entry CC(=O)c1ccccc1C(=O)N1CCN(Cc2ccc(F)cc2)CC1 [Compound 6j] : 5.07

Reference source for all entries: paper PMC6882468
